ASSAYED_SYSTEM: various mutants of kinase EGFR (BaF3 cell lines stably transfected with kinase) (Homo sapiens, UniProt P00533, L858R/T790M)
Construct: expressed in transfected cells; host or cells: BaF3
Sequence (P00533 25-1210 T790M/L858R): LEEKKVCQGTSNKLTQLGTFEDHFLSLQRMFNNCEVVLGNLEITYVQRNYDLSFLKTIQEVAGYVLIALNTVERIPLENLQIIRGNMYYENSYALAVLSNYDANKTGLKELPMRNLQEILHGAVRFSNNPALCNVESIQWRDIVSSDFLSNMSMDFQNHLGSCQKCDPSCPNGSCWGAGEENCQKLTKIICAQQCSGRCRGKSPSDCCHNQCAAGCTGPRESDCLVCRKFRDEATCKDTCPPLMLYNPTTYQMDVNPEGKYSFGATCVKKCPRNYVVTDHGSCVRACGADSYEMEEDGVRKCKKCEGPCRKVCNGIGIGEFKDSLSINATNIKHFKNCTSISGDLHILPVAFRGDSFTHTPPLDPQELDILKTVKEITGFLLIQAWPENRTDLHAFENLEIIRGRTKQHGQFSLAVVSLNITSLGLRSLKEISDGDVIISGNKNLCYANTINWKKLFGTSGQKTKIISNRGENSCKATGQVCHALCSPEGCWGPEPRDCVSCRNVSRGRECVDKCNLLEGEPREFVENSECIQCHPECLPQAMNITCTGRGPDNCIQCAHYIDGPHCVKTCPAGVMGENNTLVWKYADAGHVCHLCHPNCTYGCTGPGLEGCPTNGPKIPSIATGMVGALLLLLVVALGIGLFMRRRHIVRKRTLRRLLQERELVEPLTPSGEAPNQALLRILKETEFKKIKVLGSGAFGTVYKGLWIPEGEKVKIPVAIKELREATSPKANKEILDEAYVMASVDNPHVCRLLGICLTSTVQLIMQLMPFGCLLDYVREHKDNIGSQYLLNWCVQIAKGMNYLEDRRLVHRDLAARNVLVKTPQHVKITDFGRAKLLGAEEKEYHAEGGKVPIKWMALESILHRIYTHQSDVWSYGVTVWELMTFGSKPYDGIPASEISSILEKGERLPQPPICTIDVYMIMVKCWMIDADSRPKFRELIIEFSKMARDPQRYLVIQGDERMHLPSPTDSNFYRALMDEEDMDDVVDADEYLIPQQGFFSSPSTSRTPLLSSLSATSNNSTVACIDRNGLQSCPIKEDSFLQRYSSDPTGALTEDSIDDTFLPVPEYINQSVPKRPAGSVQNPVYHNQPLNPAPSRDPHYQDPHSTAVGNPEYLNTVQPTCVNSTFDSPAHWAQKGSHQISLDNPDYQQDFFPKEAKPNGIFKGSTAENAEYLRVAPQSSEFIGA
METHOD_NOTES: Growth inhibitory activity of compounds on BaF3 cell lines stably transfected with kinase (MTS, 48 h)
Format: cell-based
MEASUREMENT_PARAMETERS: BaF3 cells stably transfected with EGFR L858R/T790M, read-out: IC50, growth inhibition, L858R/T790M
Method: The activity of compounds against various mutants of kinase EGFR was evaluated by their effect of inhibiting growth of BaF3 cell lines stably transfected with kinase. The specific test method was given as follows: […] 3) Compound test: cells were incubated into a 96-well culture plate, the volume of cytosol was 90 µL, and then 10 µL of the compound at each gradient concentration was added. […] OD values at 490 nm were measured by a microplate reader (VARIOSKAN FLASH, Thermo). […]
pIC50: −log10 of the molar value.
Listed here: items and their measured pIC50.

Sample records with pIC50:
> print(dat)
                                   compound   measurement
1  CCc1cc(Nc2ncc(Br)c(Nc3ccc4nccnc4c3N(C)S(=O)(=O)C(F)(F)F)n2)c(OC)cc1N1CCN(C)CC1 [Compound I-260]  6.30 to 7.30
2  COc1cc(N2CCC(N3CCN(C)CC3)CC2)ccc1Nc1ncc([N+](=O)[O-])c(Nc2ccc3nccnc3c2N(C)S(C)(=O)=O)n1 [Compound I-30]  6.30 to 7.30
3  COc1cc(N2CCC(N3CCN(C)CC3)CC2)c(C)cc1Nc1ncc(Br)c(Nc2ccc3nccnc3c2N(C)S(=O)(=O)C(F)(F)F)n1 [Compound I-124]  6.30 to 7.30

// query Return the recorded pIC50 value; entry: CCc1cc(Nc2ncc(C(F)(F)F)c(Nc3ccc4nccnc4c3N(C)S(C)(=O)=O)n2)c(OC(F)(F)F)cc1N1CCC(N2CCN(C)CC2)CC1 [Compound I-201]
// result 6.30 to 7.30

// query Return the recorded pIC50 value; entry: CCN(c1c(Nc2nc(Nc3cc(C)c(N4CCC(N5CCN(C)CC5)CC4)nc3OC)ncc2Cl)ccc2nccnc12)S(C)(=O)=O [Compound I-226]
// result 6.30 to 7.30

// query Return the recorded pIC50 value; entry: CCc1cc(Nc2ncc(OC)c(Nc3ccc4nccnc4c3N(C)S(C)(=O)=O)n2)c(OC)cc1N1CCC(N(C)C)CC1 [Compound I-282]
// result ≥ 7.30

====

ASSAYED_SYSTEM: various mutants of kinase EGFR (BaF3 cell lines stably transfected with kinase) (Homo sapiens, UniProt P00533, T790M/C797S, form not given)
Construct: other: BaF3 cells stably transfected with EGFR Δ19Del/T790M/C797S; MTS, 48; other: BaF3 cell line stably transfected with EGFR Δ19Del/T790M/C7
Sequence (P00533 with tags, fused parts or gaps DEL746-750/T790M/C797S, form open): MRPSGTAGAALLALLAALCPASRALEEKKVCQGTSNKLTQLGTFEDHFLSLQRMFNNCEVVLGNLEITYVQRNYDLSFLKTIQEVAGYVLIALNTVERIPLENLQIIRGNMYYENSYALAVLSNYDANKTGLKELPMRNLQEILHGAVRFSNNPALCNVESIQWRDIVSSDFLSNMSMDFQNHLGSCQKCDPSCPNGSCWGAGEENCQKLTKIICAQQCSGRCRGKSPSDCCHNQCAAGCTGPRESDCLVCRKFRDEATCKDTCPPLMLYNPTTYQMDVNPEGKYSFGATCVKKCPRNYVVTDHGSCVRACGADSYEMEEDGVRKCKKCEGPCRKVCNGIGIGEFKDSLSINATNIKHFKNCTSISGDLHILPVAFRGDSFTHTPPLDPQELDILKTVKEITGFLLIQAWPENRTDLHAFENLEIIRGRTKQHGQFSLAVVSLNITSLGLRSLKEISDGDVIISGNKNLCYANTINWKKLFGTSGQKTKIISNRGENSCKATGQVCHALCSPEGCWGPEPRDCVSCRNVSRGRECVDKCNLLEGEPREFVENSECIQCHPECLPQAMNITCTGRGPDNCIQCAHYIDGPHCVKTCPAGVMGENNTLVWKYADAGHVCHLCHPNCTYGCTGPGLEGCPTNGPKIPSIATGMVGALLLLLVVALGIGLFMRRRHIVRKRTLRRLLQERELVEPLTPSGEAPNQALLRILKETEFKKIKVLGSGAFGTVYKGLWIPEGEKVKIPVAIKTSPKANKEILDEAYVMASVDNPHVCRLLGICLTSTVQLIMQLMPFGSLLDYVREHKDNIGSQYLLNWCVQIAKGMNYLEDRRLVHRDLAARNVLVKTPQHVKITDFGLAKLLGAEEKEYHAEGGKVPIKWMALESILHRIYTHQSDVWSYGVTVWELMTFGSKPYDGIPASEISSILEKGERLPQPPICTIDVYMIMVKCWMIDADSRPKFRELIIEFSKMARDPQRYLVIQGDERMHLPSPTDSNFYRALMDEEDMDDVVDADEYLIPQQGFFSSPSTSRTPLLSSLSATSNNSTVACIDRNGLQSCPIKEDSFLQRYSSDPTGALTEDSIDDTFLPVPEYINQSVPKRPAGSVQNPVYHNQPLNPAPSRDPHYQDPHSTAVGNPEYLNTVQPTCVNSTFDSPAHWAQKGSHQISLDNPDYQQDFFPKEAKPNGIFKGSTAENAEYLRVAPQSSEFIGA
METHOD_NOTES: Growth inhibitory activity of compounds on BaF3 cell lines stably transfected with kinase (MTS, 48 h)
Assay type: cell-based
MEASUREMENT_PARAMETERS: BaF3 cells stably transfected with EGFR Δ19Del/T790M/C797S, read-out: IC50, growth inhibition, Δ19Del/T790M/C797S
Listed here: items and their measured IC50.

Sample records with IC50:
> print(dat)
                                smiles.repr  endpoint.name  measurement
1  COc1cc(N2CCC(N3CCN(C)CC3)CC2)c(C)cc1Nc1ncc([N+](=O)[O-])c(Nc2ccc3nccnc3c2N(C)S(C)(=O)=O)n1           IC50      ≤ 50 nM
2  COc1cc(N2CCN(C)CC2)c(C)cc1Nc1ncc(Cl)c(Nc2ccc3nccnc3c2N(C2CC2)S(C)(=O)=O)n1           IC50      ≤ 50 nM

Next compound, please.
// query Return the recorded IC50 value; entry: Cc1cc(Nc2ncc(Br)c(Nc3ccc4nccnc4c3N(C)S(C)(=O)=O)n2)c(OC(C)C)cc1C1CCN(C)CC1
// result ≤ 50 nM
